biological target: PLA2G7 (Mus musculus, UniProt Q60963); construct: Proteomes (mouse brain membrane fraction or cell lysates); from tissue; host or cells: mouse brain membrane fraction (or cell lysates, not specified); experiment: In vitro competitive activity-based protein profiling (gel-based, FP-Rh or HT-01 probe); type: biochemical; details: 1 μM inhibitor; read-out: % Inhibition at 1 μM, D = PLA2G7
Sequence (Q60963 22-440): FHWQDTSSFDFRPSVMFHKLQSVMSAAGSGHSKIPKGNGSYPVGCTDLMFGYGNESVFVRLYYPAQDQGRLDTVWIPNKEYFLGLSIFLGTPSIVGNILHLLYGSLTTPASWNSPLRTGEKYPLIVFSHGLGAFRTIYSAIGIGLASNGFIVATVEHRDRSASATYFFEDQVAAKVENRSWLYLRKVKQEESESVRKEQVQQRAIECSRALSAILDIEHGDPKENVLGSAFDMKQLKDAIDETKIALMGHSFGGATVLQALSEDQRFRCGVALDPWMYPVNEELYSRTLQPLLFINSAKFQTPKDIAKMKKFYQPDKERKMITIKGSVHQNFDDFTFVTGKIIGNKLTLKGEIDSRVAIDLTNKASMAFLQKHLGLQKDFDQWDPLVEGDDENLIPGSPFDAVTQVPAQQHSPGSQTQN
parameter measured: inhibition at 1 µM

O=C(c1cnn(C(=O)N2CCN(Cc3ccc4c(c3)OCO4)CC2)c1)N1CCOCC1 = < 25%
O=C(N1CCN(Cc2ccc(N3CCCC3)cc2)CC1)n1cc(Cl)cn1 = < 25%
CCN(Cc1ccc(OC)cc1)C(=O)n1cc(Cl)cn1 = < 25%
O=C(c1cnn(C(=O)N2CCN(Cc3ccc4c(c3)OCO4)CC2)c1)N1CCCCC1 = > 75%
Cc1cnn(C(=O)N2CCN(C)CC2)c1 = < 25%
CN1CCN(C(=O)n2cc(C(F)(F)F)cn2)CC1 = 25 to 75%
Cc1cccc(N2CCN(C(=O)n3cc(C(F)(F)F)cn3)CC2)c1 = > 75%
O=C(c1cnn(C(=O)N2CCN(Cc3ccc4c(c3)OCO4)CC2)c1)N1CCC1 = < 25%
O=C(N1CCN(Cc2cncnc2)CC1)n1cc(-c2ccccc2)cn1 = > 75%
